- System: 3T3-L1 mouse adipocytes
- METHOD DESCRIPTION: Free Fatty Acid Levels in 3T3-L1 Mouse Adipocytes (Example 12, 10 μM)
- Format: cell-based
- MEASUREMENT SETUP: peptides 10 μM, 20-22 hours then 3 hours with isoproterenol 1 nM, 3T3-L1 mouse adipocytes
Non-standard residues stand in square brackets, D forms with d. No end group written: not given here.
PROPERTY LABEL: Free fatty acid levels, Percent of Isoproterenol Control Activity
Note to self: number, then unit, no commentary.

SUBSTANCE: 11 (RLPGSAILTNPVL[dA]WVWV) [compound 11]
RESULT: 47.2%
--
SUBSTANCE: 15 (LPGS[dA]ILTNPVLGWVWV) [compound 15]
RESULT: 92.8%
--
SUBSTANCE: 17 (GS[dA]ILTNPVLGWVWV) [compound 17]
RESULT: 88.5%
--
SUBSTANCE: 14 (MRLPGPAILTNPVLGWVWV) [compound 14]
RESULT: 80.8%
--
SUBSTANCE: 16 (PGS[dA]ILTNPVLGWVWV) [compound 16]
RESULT: 97.2%

--- query ---
Which measured Free fatty acid levels, Percent of Isoproterenol Control Activity value corresponds to 18 (S[dA]ILTNPVLGWVWV) [compound 18] ?
95.9%

====

- METHOD DESCRIPTION: Stability in Mouse Plasma
- Format: in vitro ADME
- MEASUREMENT SETUP: pooled mouse plasma, 37° C., peptides 100 DM, 180 min
Non-standard residues stand in square brackets, D forms with d. Residues, ends and D or L forms follow the SMILES beside them.
PROPERTY LABEL: remaining at 3 h, 100 DM (%)
Please respond with the number in % and leave the unit unwritten.

Use the examples below as a reference point.
COMPOUND: CC[C@H](C)[C@H](NC(=O)[C@H](C)NC(=O)[C@H](CO)NC(=O)CNC(=O)[C@@H]1CCCN1C(=O)[C@H](CC(C)C)NC(=O)[C@@H](N)CCCNC(=N)N)C(=O)N[C@@H](CC(C)C)C(=O)N[C@H](C(=O)N[C@@H](CC(N)=O)C(=O)N1CCC[C@H]1C(=O)N[C@H](C(=O)N[C@@H](CC(C)C)C(=O)NCC(=O)N[C@@H](Cc1c[nH]c2ccccc12)C(=O)N[C@H](C(=O)N[C@@H](Cc1c[nH]c2ccccc12)C(=O)N[C@H](C(=O)O)C(C)C)C(C)C)C(C)C)[C@@H](C)O [compound 8] (H-RLPGSAILTNPVLGWVWV-OH)
remaining at 3 h, 100 DM / %: 45
--
COMPOUND: CC[C@H](C)[C@H](NC(=O)[C@H](C)NC(=O)[C@H](CO)NC(=O)CNC(=O)[C@@H]1CCCN1C(=O)[C@H](CC(C)C)NC(=O)[C@H](CCCNC(=N)N)NC(=O)[C@@H](N)CCSC)C(=O)N[C@@H](CC(C)C)C(=O)N[C@H](C(=O)N[C@@H](CC(N)=O)C(=O)N1CCC[C@H]1C(=O)N[C@H](C(=O)N[C@@H](CC(C)C)C(=O)NCC(=O)N[C@@H](Cc1c[nH]c2ccccc12)C(=O)N[C@H](C(=O)N[C@@H](Cc1c[nH]c2ccccc12)C(=O)N[C@H](C(=O)O)C(C)C)C(C)C)C(C)C)[C@@H](C)O [compound 7] (H-MRLPGSAILTNPVLGWVWV-OH)
remaining at 3 h, 100 DM / %: 18.1

--- query ---
Which measured remaining at 3 h, 100 DM value corresponds to CC[C@H](C)[C@H](NC(=O)[C@@H](C)NC(=O)[C@H](CO)NC(=O)CNC(=O)[C@@H]1CCCN1C(=O)[C@H](CC(C)C)NC(=O)[C@@H](N)CCCNC(=N)N)C(=O)N[C@@H](CC(C)C)C(=O)N[C@H](C(=O)N[C@@H](CC(N)=O)C(=O)N1CCC[C@H]1C(=O)N[C@H](C(=O)N[C@@H](CC(C)C)C(=O)NCC(=O)N[C@@H](Cc1c[nH]c2ccccc12)C(=O)N[C@H](C(=O)O)C(C)C)C(C)C)[C@@H](C)O [compound 10] (H-RLPGS[dA]ILTNPVLGWV-OH) ?
8.9

====

- METHOD DESCRIPTION: Stability in Mouse Plasma
- Type: in vitro ADME
- MEASUREMENT SETUP: pooled mouse plasma, 37° C., peptides 100 DM, 120 min
Residues, ends and D or L forms follow the SMILES beside them.
PROPERTY LABEL: remaining at 2 h, 100 DM (%)
Please respond with the number in % and leave the unit unwritten.

Which measured remaining at 2 h, 100 DM value corresponds to CC[C@H](C)[C@H](NC(=O)[C@H](C)NC(=O)[C@H](CO)NC(=O)CNC(=O)[C@@H]1CCCN1C(=O)[C@H](CC(C)C)NC(=O)[C@@H](N)CCCNC(=N)N)C(=O)N[C@@H](CC(C)C)C(=O)N[C@H](C(=O)N[C@@H](CC(N)=O)C(=O)N1CCC[C@H]1C(=O)N[C@H](C(=O)N[C@@H](CC(C)C)C(=O)NCC(=O)N[C@@H](Cc1c[nH]c2ccccc12)C(=O)N[C@H](C(=O)N[C@@H](Cc1c[nH]c2ccccc12)C(=O)N[C@H](C(=O)O)C(C)C)C(C)C)C(C)C)[C@@H](C)O [compound 8] (H-RLPGSAILTNPVLGWVWV-OH) ?
58.7

====

Known remaining at 2 h, 100 DM of a selection of molecules
- METHOD DESCRIPTION: Stability in Mouse Plasma
- Type: in vitro ADME
- MEASUREMENT SETUP: pooled mouse plasma, 37° C., peptides 100 DM, 120 min
Non-standard residues stand in square brackets, D forms with d. Residues, ends and D or L forms follow the SMILES beside them.
Please respond with the number in % and leave the unit unwritten.

MOLECULE: CC[C@H](C)[C@H](NC(=O)[C@@H](C)NC(=O)[C@H](CO)NC(=O)CNC(=O)[C@@H]1CCCN1C(=O)[C@H](CC(C)C)NC(=O)[C@@H](N)CCCNC(=N)N)C(=O)N[C@@H](CC(C)C)C(=O)N[C@H](C(=O)N[C@@H](CC(N)=O)C(=O)N1CCC[C@H]1C(=O)N[C@H](C(=O)N[C@@H](CC(C)C)C(=O)NCC(=O)N[C@@H](Cc1c[nH]c2ccccc12)C(=O)N[C@H](C(=O)N[C@@H](Cc1c[nH]c2ccccc12)C(=O)N[C@H](C(=O)O)C(C)C)C(C)C)C(C)C)[C@@H](C)O [compound 9] (H-RLPGS[dA]ILTNPVLGWVWV-OH)
UNIT OF MEASUREMENT: %
remaining at 2 h, 100 DM: 56.5
--
MOLECULE: CC[C@H](C)[C@H](NC(=O)[C@H](C)NC(=O)[C@H](CO)NC(=O)CNC(=O)[C@@H]1CCCN1C(=O)[C@H](CC(C)C)NC(=O)[C@H](CCCNC(=N)N)NC(=O)[C@@H](N)CCSC)C(=O)N[C@@H](CC(C)C)C(=O)N[C@H](C(=O)N[C@@H](CC(N)=O)C(=O)N1CCC[C@H]1C(=O)N[C@H](C(=O)N[C@@H](CC(C)C)C(=O)NCC(=O)N[C@@H](Cc1c[nH]c2ccccc12)C(=O)N[C@H](C(=O)N[C@@H](Cc1c[nH]c2ccccc12)C(=O)N[C@H](C(=O)O)C(C)C)C(C)C)C(C)C)[C@@H](C)O [compound 7] (H-MRLPGSAILTNPVLGWVWV-OH)
UNIT OF MEASUREMENT: %
remaining at 2 h, 100 DM: 31.6

--- query ---
Which measured remaining at 2 h, 100 DM value corresponds to CC[C@H](C)[C@H](NC(=O)[C@@H](C)NC(=O)[C@H](CO)NC(=O)CNC(=O)[C@@H]1CCCN1C(=O)[C@H](CC(C)C)NC(=O)[C@@H](N)CCCNC(=N)N)C(=O)N[C@@H](CC(C)C)C(=O)N[C@H](C(=O)N[C@@H](CC(N)=O)C(=O)N1CCC[C@H]1C(=O)N[C@H](C(=O)N[C@@H](CC(C)C)C(=O)NCC(=O)N[C@@H](Cc1c[nH]c2ccccc12)C(=O)N[C@H](C(=O)O)C(C)C)C(C)C)[C@@H](C)O [compound 10] (H-RLPGS[dA]ILTNPVLGWV-OH) ?
18.1
